study system: human Fpn (Homo sapiens, UniProt Q9NP59)
Construct: FLAG (C); made in house; host or cells: Pichia pastoris
Sequence (Q9NP59 whole entry): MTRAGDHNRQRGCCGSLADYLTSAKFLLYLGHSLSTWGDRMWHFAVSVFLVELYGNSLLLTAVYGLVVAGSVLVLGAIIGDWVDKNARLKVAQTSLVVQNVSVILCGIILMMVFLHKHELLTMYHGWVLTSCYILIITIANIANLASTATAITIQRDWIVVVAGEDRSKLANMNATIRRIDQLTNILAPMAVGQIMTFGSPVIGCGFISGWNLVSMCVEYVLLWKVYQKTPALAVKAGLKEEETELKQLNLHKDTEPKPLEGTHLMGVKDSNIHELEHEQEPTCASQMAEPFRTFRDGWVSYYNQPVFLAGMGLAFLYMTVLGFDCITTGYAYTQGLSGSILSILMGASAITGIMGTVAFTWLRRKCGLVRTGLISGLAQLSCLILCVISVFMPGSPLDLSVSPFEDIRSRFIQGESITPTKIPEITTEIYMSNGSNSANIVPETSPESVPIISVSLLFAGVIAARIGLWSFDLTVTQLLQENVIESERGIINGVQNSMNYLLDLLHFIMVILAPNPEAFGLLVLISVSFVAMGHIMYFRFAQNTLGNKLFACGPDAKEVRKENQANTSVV
measurement description: Biophysical Ferroportin-Hepcidin Binding Assay (fluorescence polarization)
study conditions: average of multiple measurements; 1 μM human Fpn, 20 nM TMR-hepcidin; read-out: FP IC50
Listing of entries alongside the reported IC50.

molecule: O=C(CNC(=O)C1CN(CCc2nc3ccccc3[nH]2)C1)NCc1ncccc1F
IC50 (nM): 790
--
molecule: O=C(NCc1ccccc1S(=O)(=O)N1CCOCC1)c1csc(CCNCc2nc3ccccc3[nH]2)n1
IC50 (nM): 1830
--
molecule: O=C(NCc1ncccc1F)c1csc(CNCCCc2nc3ccccc3[nH]2)n1
IC50 (nM): 5300
--
molecule: O=C(NCc1ncccc1F)c1cccc(CCNCCc2nc3ccccc3[nH]2)c1
IC50 (nM): 295
--
molecule: O=C(NCc1ncccc1F)c1cncc(C2CN(CCc3nc4ccccc4[nH]3)C2)c1
IC50 (nM): 66
--
molecule: O=C(NCc1ncccc1F)c1cccc(CCNCCc2nc3c(F)cccc3[nH]2)c1
IC50 (nM): 1650
--
molecule: O=C(NCc1ncccc1C(F)(F)F)c1csc(CCNCc2nc3ccccc3[nH]2)n1
IC50 (nM): 1900
--
molecule: CN1CCOCC1CNC(=O)c1csc(CCNCc2nc3ccccc3[nH]2)n1 (centres unmarked)
IC50 (nM): 12000
--
molecule: O=C(NCc1ncc(F)cc1F)c1csc(CNCCCc2nc3ccccc3[nH]2)n1
IC50 (nM): 3500
--
molecule: O=C(NCc1ncccc1F)c1cccc(CCNCCc2nc3ccccc3[nH]2)n1
IC50 (nM): 1300
--
molecule: C=C(C)c1sc(CCNCc2nc3ccccc3[nH]2)nc1C(=O)NCc1ncccc1F
IC50 (nM): 15400

---

study system: human Fpn-GFP fusion (Homo sapiens, UniProt Q9NP59)
Construct: expressed in transfected cells; host or cells: HEK-293 cell line #354 (derivative of HEK-293 Tet-ON Advanced, Clontech)
measurement description: Ferroportin Internalization and Degradation Assay (FACS)
Type: cell-based
study conditions: average of multiple measurements; Fpn-GFP MFI, HEK-293 cell line #354, FACS
Each entry belongs to exactly one class, chosen by where its EC50 falls: lo: < 300 nM; med: ≥ 300 nM and < 5000 nM; hi: ≥ 5000 nM

compound: O=C(NCc1cccnn1)c1nc(CCNCc2nc3ccccc3[nH]2)sc1Cl
label value: hi

compound: O=C(NCc1ccccn1)c1coc(CCNCc2nc3ccccc3[nH]2)n1
label value: hi

compound: O=C(NCc1ncccc1F)c1csc(CCNCCc2nc3ccccc3[nH]2)n1
label value: lo

compound: O=C(NCc1ncccc1F)c1coc(C2CN(CCc3nc4ccccc4[nH]3)C2)n1
label value: lo

compound: O=C(NCc1ncccc1F)c1coc(C2CN(CCc3nc4c(F)cccc4[nH]3)C2)n1
label value: med

compound: O=C(NCc1ncccc1F)c1nc(CCNCc2nc3ccccc3[nH]2)sc1Cl
label value: med

compound: O=C(NC1CCc2cccnc21)c1csc(CCNCCc2nc3ccccc3[nH]2)n1 (stereo not shown)
label value: med

compound: O=C(NCc1ncccc1F)c1csc(CCCNCc2nc3ccccc3[nH]2)n1
label value: hi

compound: O=C(NCc1ncccc1F)c1nc(CCNCCc2nc3ccccc3[nH]2)sc1Cl
label value: lo

---

Listing of entries alongside the reported IC50.
study system: ferroportin (Fpn) (Mus musculus)
Construct: host or cells: J774 mouse macrophage cell line, Fe(III)-NTA induced
Sequence (Q9JHI9 1-570): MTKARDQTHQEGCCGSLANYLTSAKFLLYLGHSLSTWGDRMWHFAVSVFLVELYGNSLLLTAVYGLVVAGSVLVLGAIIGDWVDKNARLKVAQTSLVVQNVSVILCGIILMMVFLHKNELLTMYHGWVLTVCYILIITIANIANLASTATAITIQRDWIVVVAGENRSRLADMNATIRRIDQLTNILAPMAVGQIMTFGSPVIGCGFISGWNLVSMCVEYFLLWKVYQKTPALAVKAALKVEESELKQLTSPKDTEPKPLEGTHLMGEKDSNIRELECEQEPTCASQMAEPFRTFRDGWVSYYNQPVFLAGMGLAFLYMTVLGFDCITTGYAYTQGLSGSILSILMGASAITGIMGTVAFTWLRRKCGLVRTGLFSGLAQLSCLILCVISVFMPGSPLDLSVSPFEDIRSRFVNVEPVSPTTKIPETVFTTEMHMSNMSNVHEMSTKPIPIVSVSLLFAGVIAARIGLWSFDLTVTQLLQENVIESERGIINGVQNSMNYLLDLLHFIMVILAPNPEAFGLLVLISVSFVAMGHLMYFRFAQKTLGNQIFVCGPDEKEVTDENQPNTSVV
measurement description: Hepcidin Internalization Assay (J774)
Format: cell-based
study conditions: average of multiple measurements; inhibition of TMR-hepcidin (25 nM) internalization into J774 cells; read-out: J774 IC50

compound: O=C(NCc1ncccc1F)c1csc(CCNCc2nc3ccccc3o2)n1 [Example 115]
result comparator: >
IC50 [nM]: 25000

compound: O=C(NCc1ncccc1Cl)c1coc(CCNCCc2nc3ccccc3[nH]2)n1 [Example 173]
result comparator: =
IC50 [nM]: 6

compound: O=C(NCc1cccnn1)c1csc(CCNCCc2nc3ccccc3[nH]2)n1 [Example 122]
result comparator: =
IC50 [nM]: 26

compound: O=C(NCc1ncc(F)cc1F)c1csc(CCNCCc2nc3ccccc3[nH]2)n1 [Example 116]
result comparator: =
IC50 [nM]: 1000

compound: O=C(NCc1ccccc1)c1csc(CCNC(=O)c2nc3ccccc3[nH]2)n1 [Example 7]
result comparator: =
IC50 [nM]: 14200

compound: Cc1cnc(CNC(=O)c2csc(CCNCCc3nc4ccccc4[nH]3)n2)nc1 [Example 155]
result comparator: =
IC50 [nM]: 347

compound: Cn1ccc(CNC(=O)c2csc(CCNCc3nc4ccccc4[nH]3)n2)n1 [Example 86]
result comparator: =
IC50 [nM]: 480

compound: COc1cccnc1CNC(=O)c1csc(CCNCc2nc3ccccc3[nH]2)n1 [Example 59]
result comparator: =
IC50 [nM]: 50

---

study system: ferroportin (Fpn) (Mus musculus, UniProt Q9JHI9)
Construct: host or cells: J774 mouse macrophage cell line, Fe(III)-NTA induced
measurement description: Hepcidin Internalization Assay (J774)
Type: cell-based
study conditions: average of multiple measurements; inhibition of TMR-hepcidin (25 nM) internalization into J774 cells; read-out: J774 IC50
Excerpt: This cellular assay allows quantification of the binding of hepcidin to ferroportin (Fpn) through microscopic detection of internalization of a fluorescently labeled hepcidin into J774 cells. […] Therefore, microscopic detection of ceH associated TMR fluorescence is a measure of hepcidin binding to Fpn and internalization of hepcidin and Fpn. If TMR-hepcidin is prevented from binding to Fpn, cellular TMR fluorescence remains low (Dürrenberger et al, 2013). […]
IC50 less than 200 nM is satisfied; IC50 greater than or equal to 200 nM is not satisfied.

compound: O=C(NCc1ncccc1F)c1nc(CCNCCc2nc3ccccc3[nH]2)sc1Cl [Example 154]
label value: satisfied
//
compound: O=C(NCc1ncccc1F)c1cccc(CNCCc2nc3ccccc3[nH]2)c1 [Example 224]
label value: satisfied
//
compound: O=C(NCc1ncccc1F)c1cncc(CCNCCc2nc3c(F)cccc3[nH]2)c1 [compound 246]
label value: not satisfied
//
compound: O=C(NCc1ccccn1)c1nc(CCNCc2nc3ccccc3[nH]2)sc1Cl [Example 160]
label value: not satisfied
//
compound: O=C(NCc1ncccc1Cl)c1coc(CCNCc2nc3ccccc3[nH]2)n1 [Example 141]
label value: satisfied
//
compound: NC(=O)c1ccc(CNC(=O)c2csc(CCNCc3nc4ccccc4[nH]3)n2)cn1 [Example 54]
label value: not satisfied
//
compound: Cn1ccnc1CNC(=O)c1csc(CCNCc2nc3ccccc3[nH]2)n1 [Example 64]
label value: satisfied
//
compound: O=C(NCc1ccccn1)c1csc(C2CCN(CCc3nc4ccccc4[nH]3)C2)n1 (stereo not shown) [Example 215]
label value: not satisfied
//
compound: O=C(NCc1cccnc1)c1csc(CCNCc2nc3ccccc3[nH]2)n1 [Example 35]
label value: satisfied
//
compound: Cc1cnc(CNC(=O)c2csc(CCNCc3nc4ccccc4[nH]3)n2)c(C)c1 [Example 57]
label value: satisfied
//
compound: O=C(NCc1ncccc1F)c1cccc(CCNCCc2nc3ccccc3[nH]2)c1 [Example 235]
label value: not satisfied
//
compound: O=C(NCc1ncc(F)cc1F)c1csc(CCNCc2nc3ccccc3[nH]2)n1 [Example 108]
label value: satisfied
//
compound: O=C(NCc1cccnn1)c1nc(CCNCc2nc3ccccc3[nH]2)sc1Cl [Example 161]
label value: not satisfied
//
compound: COc1ccc2[nH]c(CNCCc3nc(C(=O)NCc4ccccc4)cs3)nc2c1 [Example 50]
label value: not satisfied
//
compound: O=C(NCC1CCCCN1)c1csc(CCNCc2nc3ccccc3[nH]2)n1 (stereo not shown) [Example 185]
label value: not satisfied
//
compound: O=C(NCc1ncccc1F)c1csc(CNCCCc2nc3ccccc3[nH]2)n1 [Example 119]
label value: satisfied
